Reference for the values: ChEMBL document CHEMBL5131397

biological target: UniProt Q9BW60; experiment: Inhibition of ELOVL1 (unknown origin) using C22-acyl-CoA as substrate by radiometric enzyme assay
Sequence (Q9BW60 whole entry): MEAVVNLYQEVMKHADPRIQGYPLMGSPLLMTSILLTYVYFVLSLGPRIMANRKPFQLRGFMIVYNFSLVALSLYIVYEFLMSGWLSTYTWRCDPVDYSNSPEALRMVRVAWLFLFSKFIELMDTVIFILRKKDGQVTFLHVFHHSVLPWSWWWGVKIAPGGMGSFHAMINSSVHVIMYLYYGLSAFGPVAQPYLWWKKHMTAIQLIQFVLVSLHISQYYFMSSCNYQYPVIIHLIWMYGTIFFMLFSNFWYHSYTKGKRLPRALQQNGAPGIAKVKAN
Simple rule here: IC50 less than 4 µM is 1.0, otherwise 0.0.

Worked examples, 4 compounds total:
[[record]]
compound = "N#Cc1ccccc1C1(C(=O)Nc2ccn(-c3cncc(F)c3)n2)CC1"
class_label = 0.0

[[record]]
compound = "O=C(Nc1ccn(-c2cncc(F)c2)n1)C1(c2cc(F)ccc2F)CC1"
class_label = 1.0

[[record]]
compound = "CN(C)C(C(=O)Nc1ccn(-c2ccccc2)n1)c1ccccc1 (stereo not drawn)"
class_label = 0.0

[[record]]
compound = "CC1(C)CC1(C(=O)Nc1ccn(-c2ccccc2)n1)c1ccccc1 (stereo not drawn)"
class_label = 0.0


*Q* Given the entry `O=C(Nc1ccn(-c2ccc(F)nc2)n1)C1(c2ccccc2F)CC1` , would its reported IC50 be below 4 µM?
*A* 1.0

*Q* Now give it for `O=C(Cc1ccccc1F)Nc1cnn(-c2ccccc2)c1` too.
*A* 0.0
